test system: Human immunodeficiency virus 1; experiment: Antiviral activity against HIV1 VI829 expressing reverse transcriptase Y181C mutant infected in human TZM-bl cells after 48 hrs by luciferase assay; format: functional, organism-based; conditions: Human immunodeficiency virus 1, VI829, TZM-bl
pEC50: −log10 of the molar value.

chemical.structure	pEC50
Cc1cc(Br)cc(C)c1Oc1ccc(=O)n(Nc2ccc(C#N)cc2)n1	< 5.00
Cc1cc(C)c(Nc2ccnc(Nc3ccc(C#N)cc3)n2)c(C)c1	7.97
Cc1cc(Cl)cc(C)c1Oc1ccc(=O)n(Nc2ccc(C#N)cc2)n1	< 5.00
Cc1cc(C)c(Oc2ccc(=O)n(Nc3ccc(C#N)cc3)n2)c(C)c1	< 5.00

###

tested on: Human immunodeficiency virus 1; assay: Ratio of EC50 for HIV1 VI829 expressing reverse transcriptase Y181C mutant infected in human TZM-b1 cells to EC50 for wild type HIV1 VI829 in human TZM-b1 cells; format: functional
observable: Ratio EC50

chemical.structure	assay.target	result
Cc1cc(Br)cc(C)c1Oc1ccc(=O)n(Nc2ccc(C#N)cc2)n1	Human immunodeficiency virus 1	>29
Cc1cc(C)c(Nc2ccnc(Nc3ccc(C#N)cc3)n2)c(C)c1	Human immunodeficiency virus 1	5.4
Cc1cc(Cl)cc(C)c1Oc1ccc(=O)n(Nc2ccc(C#N)cc2)n1	Human immunodeficiency virus 1	>20
Cc1cc(C)c(Oc2ccc(=O)n(Nc3ccc(C#N)cc3)n2)c(C)c1	Human immunodeficiency virus 1	>64

###

assay: Cytotoxicity against human TZM-b1 cells infected with wild type HIV1 BaL after 48 hrs using formazan dye by WST1 assay; format: cell-based; details: TZM-bl cells infected with wild type HIV1 BaL
Threshold 20 µM. CC50 at 48 h below it: class 1. CC50 at 48 h at it or above: class 0.

chemical.structure	assigned.class
Cc1cc(C)c(Nc2ccc(=O)n(Nc3cccc(C#N)c3)n2)c(C)c1	class 1
Cc1cc(C)c(Nc2ccc(=O)n(Nc3ccc(C#N)cc3)n2)c(C)c1	class 0
Cc1cc(C)c(Oc2ccc(=O)n(Nc3ccc(C(F)(F)F)cc3)n2)c(C)c1	class 0
Cc1cc(Cl)cc(C)c1Oc1ccc(=O)n(Nc2ccc(C#N)cc2)n1	class 1
Cc1cc(Br)cc(C)c1Oc1ccc(=O)n(Nc2ccc(C#N)cc2)n1	class 0
Cc1cc(C)c(Oc2ccc(=O)n(Nc3ccc(F)cc3)n2)c(C)c1	class 0
Cc1cc(Cl)cc(C)c1Oc1nn(Nc2ccc(C#N)cc2)c(=O)c2ccccc12	class 0
Cc1cc(C#N)cc(C)c1Oc1ccc(=O)n(Nc2ccc(C#N)cc2)n1	class 0

###

assay: Cytotoxicity against human TZM-b1 cells infected with wild type HIV1 BaL after 48 hrs using formazan dye by WST1 assay; type: cell-based; settings: TZM-bl cells infected with wild type HIV1 BaL
// values below are reported CC50 at 48 h

compound	bound.sign	CC50 at 48 h (µM)
Cc1cc(C)c(Nc2ccnc(Nc3ccc(C#N)cc3)n2)c(C)c1 [DAPIVIRINE]	=	2.88
Cc1cc(Br)cc(C)c1Oc1ccc(=O)n(Nc2ccc(Cl)cc2)n1	=	63.5
Cc1cc(C)c(Oc2nn(Nc3ccc(C#N)cc3)c(=O)c3ccccc23)c(C)c1	=	60.4
Cc1cc(C)c(Oc2ccc(=O)n(Nc3ccc(Cl)cc3)n2)c(C)c1	=	22.3
Cc1cccc(C)c1Oc1ccc(=O)n(Nc2ccc(C#N)cc2)n1	>	100

###

assay: Selectivity index, ratio of CC50 for human TZM-bl cells to EC50 for wild type HIV1 BaL; format: toxicity, cell-based; conditions: read-out: Ratio CC50/EC50
Measured selectivity ratio by item
observable: selectivity ratio

chemical.structure	bound.sign	numeric.result
Cc1cc(Cl)cc(C)c1Oc1nn(Nc2ccc(C#N)cc2)c(=O)c2ccccc12	=	14.2
Cc1cc(C)c(Nc2ccc(=O)n(Nc3ccc(C#N)cc3)n2)c(C)c1	>	69
Cc1cc(Br)cc(C)c1Oc1ccc(=O)n(Nc2ccc(C#N)cc2)n1	>	193
Cc1cc(Br)cc(C)c1Oc1ccc(=O)n(Nc2ccc(Cl)cc2)n1	=	20

###

Reported EC50 values follow for various compounds
test system: Human immunodeficiency virus 1; assay: Antiviral activity against HIV1 BaL expressing reverse transcriptase V106A mutant infected in human TZM-bl cells after 48 hrs by luciferase assay; type: functional, organism-based; details: Human immunodeficiency virus 1, BaL
observable: EC50 (nM)

chemical.structure	observable	numeric.result
Cc1cc(C)c(Oc2ccc(=O)n(Nc3ccc(C#N)cc3)n2)c(C)c1	EC50	1120
Cc1cc(C)c(Nc2ccnc(Nc3ccc(C#N)cc3)n2)c(C)c1	EC50	2.5
Cc1cc(Br)cc(C)c1Oc1ccc(=O)n(Nc2ccc(C#N)cc2)n1	EC50	2970
Cc1cc(Cl)cc(C)c1Oc1ccc(=O)n(Nc2ccc(C#N)cc2)n1	EC50	4550

###

experiment: Selectivity index, ratio of CC50 for human TZM-bl cells to EC50 for wild type HIV1 BaL; format: toxicity, cell-based; conditions: read-out: Ratio CC50/EC50

chemical.structure	bound.sign	selectivity ratio
Cc1cc(Cl)cc(C)c1Oc1ccc(=O)n(Nc2ccc(C#N)cc2)n1	=	23
Cc1cc(C)c(Nc2ccnc(Nc3ccc(C#N)cc3)n2)c(C)c1	=	1440
Cc1cc(C)c(Nc2ccc(=O)n(Nc3cccc(C#N)c3)n2)c(C)c1	<	1
Cc1cc(C)c(Oc2nn(Nc3ccc(C#N)cc3)c(=O)c3ccccc23)c(C)c1	=	43.3
Cc1cc(C)c(Oc2ccc(=O)n(Nc3ccc(C(F)(F)F)cc3)n2)c(C)c1	=	2.1
Cc1cc(C)c(Oc2ccc(=O)n(Nc3ccc(F)cc3)n2)c(C)c1	=	2.4
Cc1cccc(C)c1Oc1ccc(=O)n(Nc2ccc(C#N)cc2)n1	>	13
Cc1cc(C#N)cc(C)c1Oc1ccc(=O)n(Nc2ccc(C#N)cc2)n1	=	14
Cc1cc(C)c(Oc2ccc(=O)n(Nc3ccc(Cl)cc3)n2)c(C)c1	=	5.6
Cc1cc(C)c(Oc2ccc(=O)n(Nc3ccc(C#N)cc3)n2)c(C)c1	=	29
